- Experimental system: recombinant Human Phosphodiesterase B2 (PDE4B2) (Homo sapiens, UniProt Q07343)
- Sequence (Q07343 1-564 isoform Q07343-2): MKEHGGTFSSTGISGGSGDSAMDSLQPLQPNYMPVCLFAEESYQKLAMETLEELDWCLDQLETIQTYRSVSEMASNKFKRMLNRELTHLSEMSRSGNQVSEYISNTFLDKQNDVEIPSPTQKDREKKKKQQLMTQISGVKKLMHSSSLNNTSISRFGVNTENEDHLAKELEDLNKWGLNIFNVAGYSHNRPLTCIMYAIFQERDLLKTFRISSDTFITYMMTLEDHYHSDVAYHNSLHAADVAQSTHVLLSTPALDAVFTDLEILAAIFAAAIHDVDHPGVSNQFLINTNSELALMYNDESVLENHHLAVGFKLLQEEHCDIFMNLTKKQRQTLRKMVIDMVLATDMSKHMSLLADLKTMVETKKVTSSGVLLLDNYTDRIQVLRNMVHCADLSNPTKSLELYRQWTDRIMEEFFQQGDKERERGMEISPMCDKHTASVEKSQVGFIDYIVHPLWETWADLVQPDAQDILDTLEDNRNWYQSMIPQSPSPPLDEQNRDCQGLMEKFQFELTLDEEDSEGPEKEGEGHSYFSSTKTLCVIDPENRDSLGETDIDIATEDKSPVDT
- Method notes: Human Phosphodiesterase B2 Radiometric Assay (yttrium silicate SPA beads, [3H]cyclic AMP)
- Format: biochemical
- Applied conditions: recombinant human PDE4B2, radiometric SPA assay, 8 nM [3H]cyclic AMP; read-out: PDE4B2 pIC50 (converted)
Observation type: IC50
Number plus unit, in that order.

O=c1c2cc(F)cnc2n(-c2cccc(-c3cccc(O)c3CN3CCOCC3)c2)c(=O)n1[C@H]1CC[C@@H](NCc2cn3cc(F)ccc3n2)CC1 : 0.126 nM

Which value of IC50 has been reported for Cc1cccc(CN[C@H]2CC[C@@H](n3c(=O)c4cc(F)cnc4n(-c4cccc(-c5ccc(O)cc5CN5CCOCC5)c4)c3=O)CC2)n1 in the records?
0.0794 nM

Which value of IC50 has been reported for O=C(N[C@H]1CC[C@@H](n2c(=O)c3cc(F)cnc3n(-c3cccc(-c4ccc(CN5CCC[C@H]5CO)cc4)c3)c2=O)CC1)c1cn2c(n1)CCCC2 in the records?
0.0501 nM

Which value of IC50 has been reported for CN(C)CCOc1ccc(-c2cccc(-n3c(=O)n([C@H]4CC[C@@H](NC(=O)c5cn6cc(F)ccc6n5)CC4)c(=O)c4cc(F)cnc43)c2)cc1 in the records?
0.0398 nM

Which value of IC50 has been reported for O=C(N[C@H]1CC[C@@H](n2c(=O)c3cc(F)cnc3n(-c3cccc(-c4ccc(CN5CCSCC5)cc4)c3)c2=O)CC1)c1cn2c(n1)CCCC2 in the records?
0.00316 nM

Which value of IC50 has been reported for O=C(N[C@H]1CC[C@@H](n2c(=O)c3cc(F)cnc3n(-c3cccc(-c4ccc(CN5CCOCC5)cc4)c3)c2=O)CC1)c1cn2cc(F)ccc2n1 in the records?
0.0126 nM

* * *

Property: IC50; scope: individual compounds
- Experimental system: recombinant Human Phosphodiesterase B2 (PDE4B2) (Homo sapiens)
- Method notes: Human Phosphodiesterase B2 Radiometric Assay (yttrium silicate SPA beads, [3H]cyclic AMP)
- Type: biochemical
- Applied conditions: recombinant human PDE4B2, radiometric SPA assay, 8 nM [3H]cyclic AMP; read-out: PDE4B2 pIC50 (converted)
Give the value in nM but do not write nM after it.

// known answers, use as guide
O=C(N[C@H]1CC[C@@H](n2c(=O)c3cc(F)cnc3n(-c3cccc(-c4ccccc4)c3)c2=O)CC1)c1cn2cc(F)ccc2n1 [Example 1] : 0.0251
CC(C)N1CCN(Cc2ccc(-c3cccc(-n4c(=O)n([C@H]5CC[C@@H](NC(=O)C6CC6)CC5)c(=O)c5cc(F)cnc54)c3)cc2)CC1 [Example 233] : 0.0501

# ---- query compound ----
Which value of IC50 has been reported for O=c1c2cc(F)cnc2n(-c2cccc(-c3ccc(CN4CCNCC4)cc3)c2)c(=O)n1[C@H]1CC[C@@H](NCc2cn3cc(F)ccc3n2)CC1 [Example 75] in the records?
0.316

* * *

- Experimental system: recombinant Human Phosphodiesterase B2 (PDE4B2) (Homo sapiens, UniProt Q07343)
- Method notes: Human Phosphodiesterase B2 Radiometric Assay (yttrium silicate SPA beads, [3H]cyclic AMP)
- Format: biochemical
- Applied conditions: recombinant human PDE4B2, radiometric SPA assay, 8 nM [3H]cyclic AMP; read-out: PDE4B2 pIC50 (converted)
Observation type: log10 IC50 (log10 of the value in nM)
# values: log10(IC50), units nM

Which value of log10 IC50 has been reported for O=c1c2cc(F)cnc2n(-c2cccc(-c3ccc(O)cc3CN3CC[C@H](O)C3)c2)c(=O)n1[C@H]1CC[C@@H](NCc2cn3cc(F)ccc3n2)CC1 in the records?
-0.40

Which value of log10 IC50 has been reported for O=C(N[C@H]1CC[C@@H](n2c(=O)c3cc(F)cnc3n(-c3cccc(-c4ccc(CCN5CCNCC5)cc4)c3)c2=O)CC1)c1cn2cc(F)ccc2n1 in the records?
-2.10

Which value of log10 IC50 has been reported for CNCCOc1ccc(-c2cccc(-n3c(=O)n([C@H]4CC[C@@H](NC(=O)c5cn6cc(F)ccc6n5)CC4)c(=O)c4cc(F)cnc43)c2)cc1 in the records?
-1.60

Which value of log10 IC50 has been reported for CN(C)Cc1ccc(-c2cccc(-n3c(=O)n([C@H]4CC[C@@H](NCc5cn6ccccc6n5)CC4)c(=O)c4cc(F)cnc43)c2)cc1 in the records?
0.30

Which value of log10 IC50 has been reported for CSc1ncc(-c2cccc(-n3c(=O)n([C@H]4CC[C@@H](NC(=O)c5cn6cc(F)ccc6n5)CC4)c(=O)c4cc(F)cnc43)c2)cn1 in the records?
-1.80
